- test target: purified rat liver FBP (fructose-1,6-bisphosphatase) (Rattus norvegicus)
- Sequence (P19112 2-363 limits assumed): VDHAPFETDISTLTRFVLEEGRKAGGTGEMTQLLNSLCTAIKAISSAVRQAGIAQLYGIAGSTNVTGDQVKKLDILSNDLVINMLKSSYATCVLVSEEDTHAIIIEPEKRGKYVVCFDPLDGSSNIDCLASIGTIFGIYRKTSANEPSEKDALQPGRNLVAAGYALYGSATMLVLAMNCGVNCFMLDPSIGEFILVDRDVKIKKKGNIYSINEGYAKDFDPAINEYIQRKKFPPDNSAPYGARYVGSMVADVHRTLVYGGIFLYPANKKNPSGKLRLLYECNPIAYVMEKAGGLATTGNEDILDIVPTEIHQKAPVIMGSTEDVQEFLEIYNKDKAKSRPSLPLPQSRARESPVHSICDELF
Please respond with reported pIC50 for every item in the list.
Please keep in mind that pIC50 is minus log10 of the molar concentration; only the number is needed.

Form field: reported pIC50 of O=P(O)(O)OC[C@H]1O[C@@](CO)(C(F)P(=O)(O)O)[C@@H](O)[C@@H]1O (single isomer, unassigned) 3.96

Can you handle O=P(O)(O)OC[C@H]1O[C@H](C(F)P(=O)(O)O)[C@@H](O)[C@@H]1O (stereo partly drawn) next? 3.94

Can you handle O=P(O)(O)OC[C@H]1O[C@H](CC(O)P(=O)(O)O)[C@@H](O)[C@@H]1O (stereo partly drawn) next? 4.21

Can you handle "O=P(O)(O)OC[C@H]1O[C@H](CC(F)(F)P(=O)(O)O)[C@@H](O)[C@@H]1O" next? 4.57

Can you handle "O=P(O)(O)OC[C@H]1O[C@H](C(F)(F)P(=O)(O)O)[C@@H](O)[C@@H]1O" next? 3.65

Can you handle O=P(O)(O)OC[C@H]1O[C@](CO)(C(F)P(=O)(O)O)[C@@H](O)[C@@H]1O (stereo partly drawn) next? 3.42

The measured values listed here are drawn from patent US4943629A.
